Entries and their CC50
experiment: Cytotoxicity, MTT assay (Table 2); format: cell-based; conditions: MTT assay, mean
Measure: CC50 (µM)

[
  {
    "Molecule": "C=C(C)[C@@H]1CC[C@]2(C(=O)NC(CCCCNC(=O)OC(C)(C)C)C(=O)O)CC[C@]3(C)[C@H](CC[C@@H]4[C@@]5(C)CC[C@H](OC(=O)CC(C)(C)C(=O)O)C(C)(C)[C@@H]5CC[C@]43C)[C@@H]12 (stereo partly shown)",
    "Measure": "CC50",
    "Unit string": "µM",
    "Numeric value": 24.7
  },
  {
    "Molecule": "C=C(C)[C@@H]1CC[C@]2(C(=O)O)CC[C@]3(C)[C@H](CC[C@@H]4[C@@]5(C)CC[C@H](O)C(C)(C)[C@@H]5CC[C@]43C)[C@@H]12 [BA, betulinic acid, reference compound]",
    "Measure": "CC50",
    "Unit string": "µM",
    "Numeric value": 43.8
  },
  {
    "Molecule": "C=C(C)[C@@H]1CC[C@]2(C(=O)NCCN)CC[C@]3(C)[C@H](CC[C@@H]4[C@@]5(C)CC[C@H](OC(=O)CC(C)(C)C(=O)O)C(C)(C)[C@@H]5CC[C@]43C)[C@@H]12",
    "Measure": "CC50",
    "Unit string": "µM",
    "Numeric value": 120
  },
  {
    "Molecule": "C=C(C)[C@@H]1CC[C@]2(C(=O)NCC(=O)O)CC[C@]3(C)[C@H](CC[C@@H]4[C@@]5(C)CC[C@H](OC(=O)CC(C)(C)C(=O)O)C(C)(C)[C@@H]5CC[C@]43C)[C@@H]12",
    "Measure": "CC50",
    "Unit string": "µM",
    "Numeric value": 31.1
  }
]
